Experiment: folding stability dG unfold (combined trypsin and chymotrypsin); higher = more stable
Measured metric: folding stability dG unfold (kcal/mol)

> print(dat)
                                        seq  sign.qualifier  reported.value
1  SAGGSAGGSAGMNKKVVATFTDPNSDTTTTLVGPEEAFKSQFPPETASYSLTTVPEEALLSAGGSAGGSAGG [r11_334_JUSTAS]               <              -1
2  SAKYYFITVEIYMRTGGGPRKMDITVMIPPEEMPPEDVKEIAKEIADWLAEHHPGFEVKVTIIPPDDMKSAG [r14_723_TrROS]               =            3.74
3  SAGGSAGGSAGGFTVTVVEPVDPNDPAFKKLMEERGLPPEEVVATKTLTADSEEEIAALLSAGGSAGGSAGG [r11_83_JUSTAS]               =           0.238
4  SAGGSAGGMKITEVTSEAPVPETGEVVRVAKTEDGSTITTVEYPGTGETRVYREKPDEVTPIALSAGGSAGG [r6_796_JUSTAS]               =          -0.865
